Test Protocol: Cytotoxicity in human MCF7/DX1 cells assessed as cell viability at 2 uM incubated for 24 hrs by MTT assay
Assay type: cell-based
Experimental Context: read-out: Activity
Quantity Kind: viability at 24 h, 2 µM

-- ask Quick check: viability at 24 h, 2 µM of Cc1cn([C@H]2C[C@H](N=[N+]=[N-])[C@@H](COC(=O)CCCCCCCCCCCCC(=O)OC[C@H]3O[C@@H](n4cc(C)c(=O)[nH]c4=O)C[C@@H]3N=[N+]=[N-])O2)c(=O)[nH]c1=O ?
-- reply > 95%

---

Test Protocol: Cytotoxicity in human MCF7/DX1 cells assessed as cell viability at 2.3 uM incubated for 24 hrs by MTT assay
Format: cell-based
Experimental Context: read-out: Activity
Quantity Kind: viability at 24 h, 2.3 µM

-- ask Please look up its viability at 24 h, 2.3 µM: Cc1cn([C@H]2C[C@H](N=[N+]=[N-])[C@@H](COC(=O)CCCCCCCCCCC(=O)OC[C@H]3O[C@@H](n4cc(C)c(=O)[nH]c4=O)C[C@@H]3N=[N+]=[N-])O2)c(=O)[nH]c1=O
-- reply > 95%

---

Test Protocol: Cytotoxicity in human MCF-7 FLV1000 cells assessed as cell viability at […] uM incubated for 24 hrs by MTT assay
Assay type: cell-based
Experimental Context: read-out: Activity
Quantity Kind: viability at 24 h, 11.5 µM

-- ask Reported viability at 24 h, 11.5 µM for Cc1cn([C@H]2C[C@H](N=[N+]=[N-])[C@@H](COC(=O)CCCCCCCCCCC(=O)OC[C@H]3O[C@@H](n4cc(C)c(=O)[nH]c4=O)C[C@@H]3N=[N+]=[N-])O2)c(=O)[nH]c1=O : what is it?
-- reply > 95%

---

Test Protocol: Cytotoxicity in human MCF-7 FLV1000 cells assessed as cell viability at 40 uM incubated for 24 hrs by MTT assay
Type: cell-based
Experimental Context: read-out: Activity
Quantity Kind: viability at 24 h, 40 µM (%)
Lab book: enter the figure in %, no units written.

-- ask Any idea what viability at 24 h, 40 µM was measured for Cc1cn([C@H]2C[C@H](N=[N+]=[N-])[C@@H](COC(=O)CCCCCCCCCCCCC(=O)OC[C@H]3O[C@@H](n4cc(C)c(=O)[nH]c4=O)C[C@@H]3N=[N+]=[N-])O2)c(=O)[nH]c1=O ?
-- reply 60

---

Test Protocol: Cytotoxicity in human MCF-7 FLV1000 cells assessed as cell viability at […] uM incubated for 24 hrs by MTT assay
Format: cell-based
Experimental Context: read-out: Activity
Quantity Kind: viability at 24 h, 13.3 µM

-- ask Given Cc1cn([C@H]2C[C@H](N=[N+]=[N-])[C@@H](COC(=O)CCCCCCCCCCCCC(=O)OC[C@H]3O[C@@H](n4cc(C)c(=O)[nH]c4=O)C[C@@H]3N=[N+]=[N-])O2)c(=O)[nH]c1=O , state its recorded viability at 24 h, 13.3 µM.
-- reply > 95%

---

Test Protocol: Inhibition of P-gp in human MCF7/DX1 cells assessed as increase in calcein-AM accumulation incubated for 10 mins by flow cytometry
Type: cell-based
Experimental Context: MCF7/DX1, 10 min
IC50 listing for selected molecules.
Express it in nM; write the number only.

Please review the following examples before continuing.
Chemical Smiles	Recorded Result
Cc1cn([C@H]2C[C@H](N=[N+]=[N-])[C@@H](COC(=O)CCCCCCCCCCCCC(=O)OC[C@H]3O[C@@H](n4cc(C)c(=O)[nH]c4=O)C[C@@H]3N=[N+]=[N-])O2)c(=O)[nH]c1=O	2000
Cc1cn([C@H]2C[C@H](N=[N+]=[N-])[C@@H](COC(=O)CCCCCCCCCCC(=O)OC[C@H]3O[C@@H](n4cc(C)c(=O)[nH]c4=O)C[C@@H]3N=[N+]=[N-])O2)c(=O)[nH]c1=O	2300

Now look at this entry.
-- ask So what does the record say about IC50 for Cc1cn([C@H]2C[C@H](N=[N+]=[N-])[C@@H](COC(=O)CCCCCCCCC(=O)OC[C@H]3O[C@@H](n4cc(C)c(=O)[nH]c4=O)C[C@@H]3N=[N+]=[N-])O2)c(=O)[nH]c1=O ?
-- reply 11300

Reference source for all entries: ChEMBL document CHEMBL4043109
